Every entry's value here was drawn from the supplement of paper PMC4466140.

target: CaSla1-D1-D2
experiment.summary: SPOT peptide array binding signal intensity (averaged, normalized) (arbitrary units (background-subtracted, floor 0; scale differs between SH3 domains)); higher = stronger binding of the SH3 domain to the peptide
Please note: 1 (yes) applies when SPOT peptide array binding signal intensity is 1000 or greater, and 0 (no) applies otherwise.

[ask] Decide: SPOT peptide array binding signal intensity of "RSLRKRPTSPSISGS" >= 1000?
[reply] 0 (no)

[ask] Decide: SPOT peptide array binding signal intensity of "QNTPPLPPKPKSPHL" >= 1000?
[reply] 0 (no)

[ask] Decide: SPOT peptide array binding signal intensity of "EAEEAAPQLPSRSSA" >= 1000?
[reply] 0 (no)

[ask] Decide: SPOT peptide array binding signal intensity of "KRKRRLPVSEDTNTK" >= 1000?
[reply] 0 (no)

[ask] Decide: SPOT peptide array binding signal intensity of "LKRITSPPLPPRADS" >= 1000?
[reply] 0 (no)

[ask] Decide: SPOT peptide array binding signal intensity of "RRSKSLPITPKSIFN" >= 1000?
[reply] 1 (yes)

[ask] Decide: SPOT peptide array binding signal intensity of "RRGPAPPPPPRASRP" >= 1000?
[reply] 1 (yes)
